Taken from paper PMC2990756.

- Assay System: JMJD2E (Homo sapiens)
- Protocol Description: JMJD2E FDH-coupled assay under low and high iron conditions (iron chelation profile)
- Type: biochemical
- Design: The catalytic domain of human JMJD2E (residues 1–337); His6 (N); made in house; host or cells: E. coli
- Reported Conditions: Table S1; high iron
Quantity Kind: qHTS Data: jmjd2e fas20um CurveClass

Compound | Quantity Kind | Result
C=CCc1c(C)nc(C)nc1N/N=C/c1ccccc1O | qHTS Data: jmjd2e fas20um CurveClass | Inactive
O=C(NO)c1ccccc1O | qHTS Data: jmjd2e fas20um CurveClass | Inactive
CC(C)C1C(=O)C(C(N)=O)=C(O)[C@@]2(O)C(=O)C3=C(O)c4c(O)ccc(N(C)C)c4C[C@H]3C[C@@H]12.Cl (stereo partly drawn) | qHTS Data: jmjd2e fas20um CurveClass | Poor quality curve
O=C1C=CC2=C3c4cc(O)c(O)cc4CC3(O)COC2=C1O (stereo not drawn) | qHTS Data: jmjd2e fas20um CurveClass | Poor quality curve
C=C1c2cccc(O)c2C(O)=C2C(=O)[C@]3(O)C(O)=C(C(N)=O)C(=O)C(N(C)C)C3C(O)C12.Cl (stereo partly drawn) | qHTS Data: jmjd2e fas20um CurveClass | Poor quality curve
Cc1ccc(O)c(N=NC2=C(O)CC(C)(C)CC2=O)c1 | qHTS Data: jmjd2e fas20um CurveClass | Inactive
O=[N+]([O-])c1ccc(O)c(/C=N/Nc2ccc(Cl)nn2)c1 | qHTS Data: jmjd2e fas20um CurveClass | Inactive
Cc1cc(C(=O)NNC(=S)NC(=O)/C=C/c2ccccc2Cl)n[nH]1 | qHTS Data: jmjd2e fas20um CurveClass | Inactive

Could you now consider this next compound?
// sample Cc1cccc(OCC(=O)NCC(=O)N/N=C/c2ccc(O)cc2O)c1 , its qHTS Data: jmjd2e fas20um CurveClass was Inactive

----------
- Assay System: formaldehyde dehydrogenase (FDH) (Pseudomonas putida, UniProt P46154)
- Construct: purchased Sigma-Aldrich
- Sequence (P46154 whole entry): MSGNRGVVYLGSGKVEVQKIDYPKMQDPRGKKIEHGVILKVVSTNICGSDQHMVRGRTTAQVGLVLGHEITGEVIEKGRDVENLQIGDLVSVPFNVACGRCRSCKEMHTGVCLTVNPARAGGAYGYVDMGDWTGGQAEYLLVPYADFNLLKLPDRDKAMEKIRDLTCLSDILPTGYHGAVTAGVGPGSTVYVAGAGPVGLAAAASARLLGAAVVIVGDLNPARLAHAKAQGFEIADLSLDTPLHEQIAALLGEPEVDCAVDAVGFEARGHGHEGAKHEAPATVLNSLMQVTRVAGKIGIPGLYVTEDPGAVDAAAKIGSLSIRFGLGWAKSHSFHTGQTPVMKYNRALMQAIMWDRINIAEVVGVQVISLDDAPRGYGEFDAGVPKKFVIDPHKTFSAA
- Protocol Description: FDH coupling enzyme counterscreen
- Assay type: biochemical
- Reported Conditions: Table S1; FDH counterscreen
Quantity Kind: qHTS Data: jmjd2e fdh CurveClass

These solved cases illustrate the format of a correct answer.
Compound | Quantity Kind | Result
O=Cc1ccc(O)c(O)c1 | qHTS Data: jmjd2e fdh CurveClass | Inactive
Cc1ccc(C)c(S(=O)(=O)N2CCN(Cc3ccc(O)c4ncccc34)CC2)c1 | qHTS Data: jmjd2e fdh CurveClass | Inconclusive
C/C(=N\Nc1ccc2nncn2n1)c1ccccn1 | qHTS Data: jmjd2e fdh CurveClass | Poor quality curve
C=C1c2cccc(O)c2C(O)=C2C(=O)[C@]3(O)C(O)=C(C(N)=O)C(=O)C(N(C)C)C3C(O)C12.Cl (stereo partly drawn) | qHTS Data: jmjd2e fdh CurveClass | Inactive
O=c1cc(-c2ccccc2)oc2cc(O)c(O)c(O)c12 | qHTS Data: jmjd2e fdh CurveClass | Inactive

Record O=C(NC(=S)NNC(=O)c1ccccc1O)c1ccco1 / formaldehyde dehydrogenase (FDH) (Pseudomonas putida, UniProt P46154), qHTS Data: jmjd2e fdh CurveClass recorded as Poor quality curve

Record CN1CCN(Cc2cc(COCc3ccccc3)c3cccnc3c2O)CC1 / formaldehyde dehydrogenase (FDH) (Pseudomonas putida, UniProt P46154), qHTS Data: jmjd2e fdh CurveClass recorded as Inactive

Record COC(=O)c1cc(=O)c(O)c2c(O)c(O)ccc2c1 / formaldehyde dehydrogenase (FDH) (Pseudomonas putida, UniProt P46154), qHTS Data: jmjd2e fdh CurveClass recorded as Inactive

Record O=Cc1ccc(O)c2ncccc12 / formaldehyde dehydrogenase (FDH) (Pseudomonas putida, UniProt P46154), qHTS Data: jmjd2e fdh CurveClass recorded as Inactive

Record C[C@@](N)(Cc1ccc(O)c(O)c1)C(=O)O / formaldehyde dehydrogenase (FDH) (Pseudomonas putida, UniProt P46154), qHTS Data: jmjd2e fdh CurveClass recorded as Inactive

Record CNCCc1ccc(O)c(O)c1.Cl / formaldehyde dehydrogenase (FDH) (Pseudomonas putida, UniProt P46154), qHTS Data: jmjd2e fdh CurveClass recorded as Poor quality curve

----------
- Assay System: JMJD2E (KDM4E) (Homo sapiens, UniProt B2RXH2)
- Construct: The catalytic domain of human JMJD2E (residues 1–337); His6 (N); made in house; host or cells: E. coli
- Protocol Description: qHTS fluorescence FDH-coupled JMJD2E demethylase assay
- Type: biochemical
- Reported Conditions: Table S1; unit not in table, from Figure 2; read-out: qHTS Data: jmjd2e IC50
Listed below: pIC50 values for each entry.
Quick note: pIC50 means taking -log10 of the concentration in moles per liter.

Molecule | pIC50
Oc1ccc(NCc2cccc(OCc3ccccc3)c2)cc1 | 5.35
CN(C)C1C(=O)C(C(N)=O)=C(O)[C@@]2(O)C(=O)C3=C(O)c4c(O)cccc4[C@@](C)(O)C3[C@H](O)C12 (stereo partly shown) | 5.70
Br.Oc1ccc(C2CNCCc3c2cc(O)c(O)c3Cl)cc1 (stereo not shown) | 4.60

Could you now consider this next molecule?
Record O=c1c(O)c(-c2ccc(O)c(O)c2)oc2c(O)c(O)cc(O)c12 / JMJD2E (KDM4E) (Homo sapiens, UniProt B2RXH2), pIC50 recorded as 5.55

----------
Listed below: pIC50 values for each entry.
- Assay System: JMJD2E (KDM4E) (Homo sapiens)
- Construct: The catalytic domain of human JMJD2E (residues 1–337); His6 (N); made in house; host or cells: E. coli
- Sequence (B2RXH2 1-337): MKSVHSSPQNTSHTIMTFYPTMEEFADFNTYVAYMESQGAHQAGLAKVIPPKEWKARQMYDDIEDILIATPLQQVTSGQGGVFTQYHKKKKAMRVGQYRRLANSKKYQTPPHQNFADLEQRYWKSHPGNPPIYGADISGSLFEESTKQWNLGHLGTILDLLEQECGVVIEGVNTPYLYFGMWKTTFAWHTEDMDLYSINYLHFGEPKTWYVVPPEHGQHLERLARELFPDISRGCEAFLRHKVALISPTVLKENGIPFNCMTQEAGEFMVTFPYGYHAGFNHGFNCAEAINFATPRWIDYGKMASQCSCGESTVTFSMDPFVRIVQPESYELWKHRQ
- Protocol Description: qHTS fluorescence FDH-coupled JMJD2E demethylase assay
- Format: biochemical
- Reported Conditions: Table S1; unit not in table, from Figure 2; read-out: qHTS Data: jmjd2e IC50
Quick note: pIC50 means taking -log10 of the concentration in moles per liter.

These solved cases illustrate the format of a correct answer.
Compound | pIC50
O=c1c(O)cccc2cc(O)c(O)c(O)c12 [compound 26665710] | 5.10
Cc1ccc2ccc(C(Nc3ccccn3)c3ccccc3)c(O)c2n1 (stereo not drawn) [compound 14737227] | 4.40
CNC[C@H](O)c1ccc(O)c(O)c1 [compound 26754418] | 5.15
Nc1ccc2nc3c(=O)n(CCc4ccccc4)c(=O)[nH]c3nc2c1 [compound 26726384] | 5.75
CC1(C)CCC2=C(O1)c1ccccc1C(=O)C2=O [compound 50106535] | 5.45
Cc1ccc(O)c(N=NC2=C(O)CC(C)(C)CC2=O)c1 [compound 22414549] | 6.25
COc1ccc(NC(=O)CC2Sc3ncnn3C2=O)cc1 (stereo not drawn) [compound 7968088] | 5.70
C=CCn1c(SCC(=O)c2ccc(O)c(O)c2)nnc1-c1cccnc1 [compound 26671532] | 5.45
O=Cc1ccc(O)c(O)c1 [compound 8139931] | 5.35
CCOC(=O)Cc1csc(-n2sc3ccccc3c2=O)n1 [compound 3716597] | 5.00

// sample Cc1cc(C(=O)NNC(=S)Nc2ccccc2)nn1C [compound 24796479] , its pIC50 was 5.05

// sample COc1ccc(Cn2c(O)c(/C=N/NC(=O)c3ccncc3)c(=O)[nH]c2=O)cc1 [compound 26667135] , its pIC50 was 5.10

// sample Cl.NCCc1ccc(O)c(O)c1 [compound 50106387] , its pIC50 was 4.90

// sample Cc1ccc(C)c(S(=O)(=O)N2CCN(Cc3ccc(O)c4ncccc34)CC2)c1 [compound 24838962] , its pIC50 was 5.45

// sample Cc1nc(-c2coc3c(O)c(O)ccc3c2=O)cs1 [compound 50110018] , its pIC50 was 5.15

// sample O=C(/C=C/c1ccccc1)NC(=S)NNC(=O)c1cnccn1 [compound 26725782] , its pIC50 was 5.05

// sample CN(C)c1ccnc(C(=O)O)c1 [compound 24815512] , its pIC50 was 5.55

// sample O=C(CCc1ccccc1)NCC(=O)N/N=C/c1ccc(O)cc1O [compound 26660953] , its pIC50 was 5.20

// sample C[C@@](N)(Cc1ccc(O)c(O)c1)C(=O)O [compound 11112415] , its pIC50 was 5.35

// sample CC1=CC(=O)c2c(O)cccc2C1=O [compound 26747815] , its pIC50 was 5.05
